Where these numbers come from: patent US20240018252A1

# Measurement target: T1, human CD3 (huCD3ed) (human, UniProt P07766 23-126; P04234 22-105)
# T1 construct: Soluble analyte in SPR; The delta chain is inferred from the label 'ed'; also called hCD3ed; hCD3
# T1 sequence (P07766 23-126, chain 1 of 2): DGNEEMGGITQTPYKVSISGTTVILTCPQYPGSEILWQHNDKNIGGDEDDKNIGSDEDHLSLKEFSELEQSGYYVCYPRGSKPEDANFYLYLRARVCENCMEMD
# T1 sequence (P04234 22-105, chain 2 of 2): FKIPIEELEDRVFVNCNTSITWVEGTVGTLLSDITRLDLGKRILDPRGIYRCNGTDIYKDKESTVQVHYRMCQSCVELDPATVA
# Test protocol: SPR (ProteOn XPR36), IgG amine-coupled on chip, huCD3ed as analyte, 37 C
Exercise: for every item that follows, state its recorded koff.
Write it as a number; the unit s⁻¹ goes unstated.

### Prompt Request the reported koff associated with h2B4-VH-hnps VL_TK (antibody, V domains shown, Anti-CD3; also called h2B4-hnpsTK) VH: EVQLVESGGGLVQPGGSLRLSCAASGFTFSDYYMTWVRQAPGKGLEWVAFIRNRARGYTSDHNPSVKGRFTISRDNAKNSLYLQMNSLRAEDTAVYYCARDRPSYYVLDYWGQGTTVTVSS VL: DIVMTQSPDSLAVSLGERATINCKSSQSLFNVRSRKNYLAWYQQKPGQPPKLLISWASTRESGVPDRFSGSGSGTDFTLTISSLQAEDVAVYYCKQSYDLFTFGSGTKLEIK
### Response 0.016

### Prompt Request the reported koff associated with h2B4-VH-wt VL_TK (antibody, V domains shown, Anti-CD3; also called h2B4-TK) VH: EVQLVESGGGLVQPGGSLRLSCAASGFTFSDYYMTWVRQAPGKGLEWVAFIRNRARGYTSDHNASVKGRFTISRDNAKNSLYLQMNSLRAEDTAVYYCARDRPSYYVLDYWGQGTTVTVSS VL: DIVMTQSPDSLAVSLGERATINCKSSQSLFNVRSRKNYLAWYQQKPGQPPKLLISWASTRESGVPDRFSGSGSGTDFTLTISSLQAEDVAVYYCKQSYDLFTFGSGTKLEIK
### Response 0.014

### Prompt Request the reported koff associated with h2B4 (antibody, V domains shown, Anti-CD3; tested as human IgG immobilised on the chip; also called h2B4-1d) VH: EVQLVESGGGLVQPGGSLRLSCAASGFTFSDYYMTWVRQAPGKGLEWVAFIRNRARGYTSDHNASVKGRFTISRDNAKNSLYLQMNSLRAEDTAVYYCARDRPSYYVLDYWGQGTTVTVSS VL: DIVMTQSPDSLAVSLGERATINCTSSQSLFNVRSRKNYLAWYQQKPGQPPKLLISWASTRESGVPDRFSGSGSGTDFTLTISSLQAEDVAVYYCKQSYDLFTFGSGTKLEIK
### Response 0.0137
